inhibition values for the compounds below.
target: Dual specificity protein phosphatase 6 (Rattus norvegicus) (UniProt Q64346); assay: MKP-3 phosphatase inhibitors, primary screen, biochemical, rat enzyme, in vitro (AID 425); details: recombinant MKP-3 phosphatase activity, fluorescence; at 20 µM; hits give high values;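 further: plate controls were vehicle for no effect and reference inhibitor for full effect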
Sequence (Q64346 whole entry, looked up): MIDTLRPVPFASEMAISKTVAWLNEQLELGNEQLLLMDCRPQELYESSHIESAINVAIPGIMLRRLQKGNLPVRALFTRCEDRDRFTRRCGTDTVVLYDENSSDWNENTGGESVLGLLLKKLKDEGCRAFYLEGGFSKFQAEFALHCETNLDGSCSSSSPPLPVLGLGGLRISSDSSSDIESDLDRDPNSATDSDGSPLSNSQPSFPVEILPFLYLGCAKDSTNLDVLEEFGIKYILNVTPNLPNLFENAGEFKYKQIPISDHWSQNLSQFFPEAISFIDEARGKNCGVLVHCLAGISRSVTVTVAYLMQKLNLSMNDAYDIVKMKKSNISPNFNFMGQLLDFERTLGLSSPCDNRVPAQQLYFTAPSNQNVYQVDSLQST
About 190 (0.17%) of roughly 110,000 compounds were called active. Many of the other results were omitted from the sample, so actives are more common in it than they were. Results with a measured potency or affinity are listed apart.
Numeric only. Scale: %

O=C(NCC1CCCO1)c1cc2nc(-c3ccco3)cc(C(F)(F)F)n2n1 (stereo unspecified)	0.3
Cc1ccc(-c2ccc(C=C3C(=O)N(C)C(=O)N(C)C3=O)o2)cc1[N+](=O)[O-]	-5.2
COc1ccc(S(=O)(=O)Nc2cc(C)c(O)c(S(=O)(=O)c3ccccc3)c2)cc1	-2.6
O=C1/C(=C\c2ccco2)CC2CC1C/C(=C/c1ccco1)C2=O	55.6
CN(C)S(=O)(=O)c1cc(C(=O)NCC2CCCO2)c(Cl)cc1Cl (stereo unspecified)	-1.6
O=S(=O)(NCCOCCNS(=O)(=O)c1ccccc1)c1ccccc1	-1.6
O=C(NCC1CCCO1)c1cc2nc(-c3ccc([N+](=O)[O-])cc3)cc(C(F)(F)F)n2n1 (stereo unspecified)	95.8
O=C(CCNS(=O)(=O)c1ccccc1[N+](=O)[O-])Nc1ccc(I)cc1	2

Fill in: inhibition of `Cc1cc(C)nc(Sc2c(C)nn(-c3ccccc3)c2C)n1` is ___
-0.6

Fill in: inhibition of `CCCCOC(=O)c1ccc(NC(=O)c2cncc(Br)c2)cc1` is ___
2.8

Fill in: inhibition of `CCCc1nc(SCC(=O)c2ccc(OC)cc2)c2c(=O)n(C)c(=O)n(C)c2n1` is ___
-2.4

###

target: Dual specificity protein phosphatase 6 (Rattus norvegicus); test: MKP-3 phosphatase inhibitors, primary screen, biochemical, rat enzyme, in vitro (AID 425); conditions: recombinant MKP-3 phosphatase activity, fluorescence; at 20 µM; hits give high values;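 further: plate controls were vehicle for no effect and reference inhibitor for full effect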
Screen size: about 110,000 compounds; about 190 (0.17%) were called active. The full list was thinned out, with actives kept by preference. Potency and affinity values are given separately.
measuredProperty: inhibition (%)
Numeric only. Scale: %

Look over these answered cases.
O=C(O)c1ccccc1-c1ccc(/C=c2\sc3nc4cc(Br)cnc4n3c2=O)o1	52.1
Cc1ccc(S(=O)(=O)NCC(C)NS(=O)(=O)c2ccc(C)cc2)cc1 (stereo not drawn)	69.6
c1ccc(-c2nc(C3COc4ccccc4O3)cs2)cc1 (stereo not drawn)	-4.2

Fill in: inhibition of COc1ccc(NC(=O)C2CCC(C)(C(=O)O)C2(C)C)cc1 (stereo not drawn) is ___
-6.7

Fill in: inhibition of `O=C(Nc1cccc2c1CCCC2)c1ccco1` is ___
-7

Fill in: inhibition of `CCOc1ccc(N2C(=O)/C(=C/c3ccc(I)o3)C(=O)NC2=S)cc1` is ___
107

Fill in: inhibition of `CCC(=O)Nc1c(C#N)c2nc3ccccc3nc2n1-c1ccc(C)cc1` is ___
1.4

Fill in: inhibition of `O=C1N=c2ccccc2=C1c1sc(=O)n(-c2ccc(O)cc2)c1O` is ___
0.6

###

molecular target: Dual specificity protein phosphatase 6 (Rattus norvegicus); experiment: MKP-3 phosphatase inhibitors, primary screen, biochemical, rat enzyme, in vitro (AID 425); details: recombinant MKP-3 phosphatase activity, fluorescence; at 20 µM;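 further: plate controls were vehicle for no effect and reference inhibitor for full effect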
Out of some 110,000 compounds screened, about 190 (0.17%) were called active. Rule as the data show it: active = inhibition above about 50%; inactive = the rest. The list comes from a sample in which actives are over-represented; it also holds close analogues and randomly drawn compounds. Entries with a potency or affinity are not part of this list.
Lab note: assign the record to one of active, inactive

CCc1ccccc1OCCN(CC)CC	inactive
COc1ccc(N=Cc2ccc(O)c(OC)c2)cc1	inactive
CCN1C(=O)NC(c2cccnc2)C(C(=O)OC)=C1C (centres undefined)	inactive
O=C(Nc1ccc(C(=O)N2CCOCC2)cc1)Nc1cccc2ccccc12	inactive
CCOC(=O)CCn1nnc(N)n1	inactive
O=C(CNc1cccc2ccccc12)N/N=C/c1cn(Cc2ccccc2)c2ccccc12	inactive
COc1ccc(CNS(=O)(=O)c2ccc([N+](=O)[O-])cc2)cc1	inactive
COc1ccc(/C=C2\NC(=O)c3ccccc3C2=O)cc1	active
CC(=O)c1ccc2c(c1)C1C=CCC1C(c1ccc(Cl)cc1)N2 (centres undefined)	inactive
CN(C)c1ccc(C=Nc2ccc(N(C)C)cc2)cc1	inactive

# outcome recorded in this test, key = `Oc1ccc(C=Nc2ccc(O)cc2)cc1`
active

Origin of values: PubChem BioAssay AID425
